Assayed target: wild type LRRK2 overexpressed in recombinant HEK-293T cells (Homo sapiens)
Test: pS935 LRRK2 Cell Assay (HTRF, phospho-LRRK2 Ser935)
Measurement setup: LRRK2 Inhibition, Table 8, 2 hours compound incubation
Procedure: A 2× detection solution was prepared: Tb-pERM (pLRRKtide) antibody (final concentration 0.25 nM) and EDTA (final concentration 10 mM) in TR-FRET dilution buffer. 10 μL 2× detection solution was dispensed to each well in assay plate to stop kinase reaction by Multidrop. Assay plate was spun at 1,000 rpm for 1 min and incubate for 30 min at 23° C. Assay plate was then read on Envision configured for LanthaScreen® TR-FRET. pS935 LRRK2 Cell Assay […]
Each record gets a class by IC50: group A: < 10 nM; group B: ≥ 10 nM and < 100 nM; group C: ≥ 100 nM

Problem: State the band of CN1CC(n2c(C3CC(=O)N(CC4CC4)C3)nc3cnc4ccc(C#N)cc4c32)CCC1=O (single isomer, unassigned) [Compound 139]
Solution: group C

Problem: One more compound: C[C@@H]1C[C@H](n2c(CC(=O)NCc3cc(C4CC4)on3)nc3cnc4ccc(C#N)cc4c32)CCO1 [Compound 161]
Solution: group A

Problem: One more compound: C[C@@H]1C[C@H](n2c(C3CCN(S(=O)(=O)C4CC4)CC3)nc3cnc4ccc(C#N)cc4c32)CCO1 [Compound 120]
Solution: group C

Problem: One more compound: C[C@@H]1C[C@H](n2c(CC(=O)NC3CCC3)nc3cnc4ccc(Cl)cc4c32)CCO1 [Compound 332]
Solution: group B

Problem: One more compound: C[C@@H]1C[C@H](n2c(CC(=O)Nc3ccn(CCO)n3)nc3cnc4ccc(C#N)cc4c32)CCO1 [Compound 175]
Solution: group C

Continuing:
Problem: State the band of C[C@@H]1C[C@H](n2c(CC(=O)Nc3cnn(C)c(=O)c3)nc3cnc4ccc(Cl)cc4c32)CCO1 [Compound 206]
Solution: group A

Problem: One more compound: CCc1ncc(NC(=O)Cc2nc3cnc4ccc(C#N)cc4c3n2[C@@H]2CCO[C@H](C)C2)cn1 [Compound 262]
Solution: group B

Problem: One more compound: C[C@@H]1C[C@H](n2c([C@@H]3CCN(S(C)(=O)=O)C3)nc3cnc4ccc(C#N)cc4c32)CCO1 [Compound 38]
Solution: group C

* * *

Assayed target: LRRK2 wild type enzyme (Homo sapiens, UniProt Q5S007)
Sequence (Q5S007 whole entry): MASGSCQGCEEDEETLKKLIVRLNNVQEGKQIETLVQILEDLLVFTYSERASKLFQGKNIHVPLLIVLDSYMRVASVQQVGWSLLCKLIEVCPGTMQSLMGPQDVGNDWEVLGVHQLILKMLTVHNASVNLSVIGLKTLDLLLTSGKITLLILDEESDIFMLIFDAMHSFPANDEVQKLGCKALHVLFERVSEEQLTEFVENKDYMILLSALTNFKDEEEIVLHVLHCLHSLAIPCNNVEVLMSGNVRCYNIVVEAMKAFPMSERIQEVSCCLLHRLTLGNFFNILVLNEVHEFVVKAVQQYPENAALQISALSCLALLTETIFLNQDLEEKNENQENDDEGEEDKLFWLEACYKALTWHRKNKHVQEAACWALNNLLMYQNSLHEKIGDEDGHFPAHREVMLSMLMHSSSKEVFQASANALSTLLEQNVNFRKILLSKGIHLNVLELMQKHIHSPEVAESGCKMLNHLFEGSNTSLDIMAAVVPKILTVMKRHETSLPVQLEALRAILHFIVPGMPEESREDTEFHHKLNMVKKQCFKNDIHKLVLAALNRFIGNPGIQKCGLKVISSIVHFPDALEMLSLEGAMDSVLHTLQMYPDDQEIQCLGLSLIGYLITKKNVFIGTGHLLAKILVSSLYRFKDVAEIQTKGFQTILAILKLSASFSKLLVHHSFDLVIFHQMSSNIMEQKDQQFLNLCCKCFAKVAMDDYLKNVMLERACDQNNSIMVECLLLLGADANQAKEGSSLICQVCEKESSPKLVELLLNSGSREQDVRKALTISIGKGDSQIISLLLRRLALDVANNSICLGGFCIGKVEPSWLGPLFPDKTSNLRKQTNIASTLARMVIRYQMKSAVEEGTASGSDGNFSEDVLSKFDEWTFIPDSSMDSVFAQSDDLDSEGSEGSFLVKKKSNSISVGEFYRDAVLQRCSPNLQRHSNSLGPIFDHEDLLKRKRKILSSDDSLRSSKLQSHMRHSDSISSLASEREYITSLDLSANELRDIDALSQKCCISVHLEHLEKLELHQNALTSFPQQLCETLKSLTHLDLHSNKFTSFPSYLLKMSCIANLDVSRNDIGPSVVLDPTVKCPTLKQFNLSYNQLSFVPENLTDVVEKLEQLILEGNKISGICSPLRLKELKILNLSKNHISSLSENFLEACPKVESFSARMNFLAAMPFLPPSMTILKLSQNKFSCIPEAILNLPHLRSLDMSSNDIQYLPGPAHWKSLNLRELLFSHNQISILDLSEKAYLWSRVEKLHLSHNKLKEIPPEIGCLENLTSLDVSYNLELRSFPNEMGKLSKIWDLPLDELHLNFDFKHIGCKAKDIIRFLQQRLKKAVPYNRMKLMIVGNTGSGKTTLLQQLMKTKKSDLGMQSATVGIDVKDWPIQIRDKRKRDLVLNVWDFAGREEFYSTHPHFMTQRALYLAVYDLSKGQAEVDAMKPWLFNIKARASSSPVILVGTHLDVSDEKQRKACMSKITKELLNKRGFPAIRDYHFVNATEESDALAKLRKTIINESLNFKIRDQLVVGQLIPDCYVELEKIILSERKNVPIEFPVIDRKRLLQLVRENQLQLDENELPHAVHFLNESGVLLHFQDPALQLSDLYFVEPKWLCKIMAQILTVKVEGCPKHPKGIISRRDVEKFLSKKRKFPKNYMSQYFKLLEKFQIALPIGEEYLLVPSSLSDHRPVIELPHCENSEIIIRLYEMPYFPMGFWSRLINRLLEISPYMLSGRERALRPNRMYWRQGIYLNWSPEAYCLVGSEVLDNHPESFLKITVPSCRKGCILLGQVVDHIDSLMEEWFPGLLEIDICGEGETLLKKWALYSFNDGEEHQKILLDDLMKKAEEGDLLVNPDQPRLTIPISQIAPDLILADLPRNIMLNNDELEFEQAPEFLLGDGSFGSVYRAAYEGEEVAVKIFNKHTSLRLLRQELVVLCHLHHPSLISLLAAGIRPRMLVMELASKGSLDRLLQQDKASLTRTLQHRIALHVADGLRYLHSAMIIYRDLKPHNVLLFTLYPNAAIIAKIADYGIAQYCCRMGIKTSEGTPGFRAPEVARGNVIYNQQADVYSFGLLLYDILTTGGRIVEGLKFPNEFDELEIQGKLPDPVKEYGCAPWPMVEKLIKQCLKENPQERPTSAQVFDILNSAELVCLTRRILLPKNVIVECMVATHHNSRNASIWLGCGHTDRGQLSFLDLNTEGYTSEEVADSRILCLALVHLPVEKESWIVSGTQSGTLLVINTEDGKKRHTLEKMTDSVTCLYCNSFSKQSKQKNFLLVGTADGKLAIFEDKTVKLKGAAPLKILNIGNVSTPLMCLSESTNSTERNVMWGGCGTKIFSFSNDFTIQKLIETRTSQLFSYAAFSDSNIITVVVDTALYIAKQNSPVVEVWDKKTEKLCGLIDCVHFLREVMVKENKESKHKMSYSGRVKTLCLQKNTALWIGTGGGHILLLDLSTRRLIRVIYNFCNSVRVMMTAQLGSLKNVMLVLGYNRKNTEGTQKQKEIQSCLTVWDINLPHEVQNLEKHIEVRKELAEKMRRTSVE
Recorded endpoint: pIC50
// field semantics: pIC50 = negative decimal log of concentration (mol/L)

Take a look at these entries with their results.
Problem: I'd like to know its pIC50. The compound in question is C[C@@H]1C[C@H](n2c(CC(=O)Nc3nccs3)nc3cnc4ccc(C#N)cc4c32)CCO1
Solution: 9.36

Problem: One more compound: C[C@@H]1C[C@H](n2c(CC(=O)NC3CC3(C)C)nc3cnc4ccc(C#N)cc4c32)CCO1 (stereo partly shown)
Solution: 9.19

Problem: One more compound: Cc1ccnc(C)c1NC(=O)Cc1nc2cnc3ccc(Cl)cc3c2n1[C@@H]1CCO[C@H](C)C1
Solution: 9.42

As a next step, examine the compound that follows.
Problem: I'd like to know its pIC50. The compound in question is C[C@@H]1C[C@H](n2c(CC(=O)Nc3cccn(CC(C)(C)O)c3=O)nc3cnc4ccc(C#N)cc4c32)CCO1
Solution: 9.48
